# experimental-system: his-labeled human IL-13 (immunogen A) (human) (UniProt P35225)
# procedure-text: cell-based or functional assay
Kindly supply the reported VCAM-1 fluorescence intensity, HUVEC + IL-13 0.5 ng/mL + TNFα; antibody at 0.021 nM values for the records listed here.
API note: the answer field is a bare number with no unit suffix.

What measured VCAM-1 fluorescence intensity, HUVEC + IL-13 0.5 ng/mL + TNFα; antibody at 0.021 nM goes with c29D9H8 (mouse-human chimeric IL-13 antibody) (antibody, V domains shown) VH: QVQLQQSGAELVRPGASVTLSCKASGYTFTDYEMHWVKQTPVHGLEWIGGIDPETGGTASNQKFKGKAILTADKSSSTAYMELRSLTSEDSAVYYCTSGDYFGGGPFAYWGQGTLVTVSA VL: DIKMTQSPSSMYASLGERVTITCKASQDINSYLSWFQQKPGKSPKTLIYRANRLVDGVPSRFSGSGSGQDYSLTISSLDYEDMGIYYCLQYDEFPYTFGGGTKLEIK ? 409

I am curious: what VCAM-1 fluorescence intensity, HUVEC + IL-13 0.5 ng/mL + TNFα; antibody at 0.021 nM value has been reported for c70F10A10 (mouse-human chimeric IL-13 antibody) (antibody, V domains shown) VH: QIQLQQSGAELARPGASVKLSCKASGYTFTSYGISWVKQRDGQGLEWIGEIYPRSGNTDYNEKFKGKATLTADKSSSTAYMELRSLTSEDSAVYFCSSFTTLVPTDYFDYWGQGTTLTVSS VL: DIMMSQSPSSLAVSVGEKVSMTCKSSQSLLYSSNQKNYLAWYQQKPGQSPKMLIYWASTRETGVPDRFTGSGSGTDFTLTISSVMAEDLAVYYCHQYFTYPRTFGDGTKLEVK ? 403

Which VCAM-1 fluorescence intensity, HUVEC + IL-13 0.5 ng/mL + TNFα; antibody at 0.021 nM is listed for c35E2C3 (mouse-human chimeric IL-13 antibody) (antibody, V domains shown) VH: EVQLQESGPGLAKPSQTLSLTCSVTGYSITSDYWNWIRKFPGNKLEYMGYISYNGNTYYNPSLKSQISITRDTSKNQLYLQLKSATTEDTATYYCARLAKWTWYFDIWGTGTTVTVSS VL: DIQMNQSPSSLSASLGDTITITCHASQNINVWLSWYQQKPGSLPKLLIYKASDLHTGVPSRFSGSGSGTGFTLTISSLQPEDIATYYCQQGQSYPYTFGGGTKLEIK ? 408

Param item = c28A2E11 (mouse-human chimeric IL-13 antibody) (antibody, V domains shown) VH: EVQLQQSGAELVKPGASVKLSCTASGFNIKDYYMHWVKQRTEQGLEWIGRIDPEDGETKYAPKFHDKATLTADTSSNTAYLQFSSLASEDTAVYYCTRYDYYGPFAYWGQGTLVTVSA VL: QAVVTQESVLTTSPGETVTLTCRSSTGAVTTSNYANWVQEKPDHLFTGLIGGTNNRAPGVPARFSGSLIGDKAALTITGAQTEDEAIYFCALWYINHFIFGSGTKVTVL ; retrieve measured VCAM-1 fluorescence intensity, HUVEC + IL-13 0.5 ng/mL + TNFα; antibody at 0.021 nM. 404
